Known inhibition at 1140 µM of a selection of molecules
Target: acetylcholinesterase (AChE) (Electrophorus electricus)
Assay: biochemical
Conditions: read-out: AChE / Inhibition (%)^a
State the value with its unit after it.

State its inhibition at 1140 µM on acetylcholinesterase (AChE) (Electrophorus electricus): CSCCCN=C=S
4.4%

# repeat for Cc1ccc(N=C=S)cc1
58.4%

# repeat for COc1cccc(N=C=S)c1
61.4%

# repeat for COc1ccccc1N=C=S
57%

---

Molecular target: acetylcholinesterase (AChE) (Electrophorus electricus, UniProt O42275)
Sequence (O42275 24-633): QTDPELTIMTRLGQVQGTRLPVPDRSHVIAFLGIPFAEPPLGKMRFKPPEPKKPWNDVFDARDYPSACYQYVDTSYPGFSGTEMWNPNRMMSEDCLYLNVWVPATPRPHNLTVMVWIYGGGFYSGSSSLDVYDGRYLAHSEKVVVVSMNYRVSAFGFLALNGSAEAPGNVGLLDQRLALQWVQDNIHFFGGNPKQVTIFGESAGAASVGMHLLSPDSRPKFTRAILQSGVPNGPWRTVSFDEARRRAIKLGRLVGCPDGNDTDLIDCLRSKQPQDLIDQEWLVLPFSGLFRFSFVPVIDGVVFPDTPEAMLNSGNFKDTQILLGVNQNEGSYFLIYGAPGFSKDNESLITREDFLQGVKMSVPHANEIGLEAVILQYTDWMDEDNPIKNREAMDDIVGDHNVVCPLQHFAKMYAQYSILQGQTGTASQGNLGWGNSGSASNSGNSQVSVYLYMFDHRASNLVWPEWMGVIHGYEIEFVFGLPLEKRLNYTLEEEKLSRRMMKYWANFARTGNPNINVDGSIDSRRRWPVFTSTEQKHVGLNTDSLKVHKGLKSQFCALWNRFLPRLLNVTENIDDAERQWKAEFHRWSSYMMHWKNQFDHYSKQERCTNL
Test: modified Ellman assay
Type: biochemical
Parameters: electric eel, type V-S
assay.metric: IC50 (µM)
Give a bare numeral; the unit µM is implied.

I have this molecule here, Cc1ccc(N=C=S)cc1 , and I need its recorded IC50.
930
